- Test system: HeLa
- test: Cytotoxicity against human HeLa cells after 48 hrs by MTT assay
- Format: functional, cell-based
parameter measured: pIC50
Scale note: pIC50 = -log10(concentration in M).

Some compounds with known pIC50 results, for comparison:
# structure smiles, pIC50
records = [
    ("C[C@H]1[C@H](C)CC[C@]2(C(=O)Nc3ccc(F)cc3)CC[C@]3(C)C(=CC(=O)[C@@H]4[C@@]5(C)C[C@@H](O)[C@H](O)[C@@](C)(CO)[C@@H]5CC[C@]43C)[C@H]12", 4.68),
    ("C[C@H]1[C@H](C)CC[C@]2(C(=O)Nc3ccc(Br)c(F)c3)CC[C@]3(C)C(=CC(=O)[C@@H]4[C@@]5(C)C[C@@H](O)[C@H](O)[C@@](C)(CO)[C@@H]5CC[C@]43C)[C@H]12", 5.01),
    ("Cc1ccc(C)c(NC(=O)[C@]23CC[C@@H](C)[C@H](C)[C@H]2C2=CC(=O)[C@@H]4[C@@]5(C)C[C@@H](O)[C@H](O)[C@@](C)(CO)[C@@H]5CC[C@@]4(C)[C@]2(C)CC3)c1", 4.80),
    ("C[C@H]1[C@H](C)CC[C@]2(C(=O)Nc3ccc(Br)cc3)CC[C@]3(C)C(=CC(=O)[C@@H]4[C@@]5(C)C[C@@H](O)[C@H](O)[C@@](C)(CO)[C@@H]5CC[C@]43C)[C@H]12", 4.73),
]

For HeLa, give the measured pIC50 of the entry C[C@H]1[C@H](C)CC[C@]2(C(=O)Nc3cccc(Cl)c3)CC[C@]3(C)C(=CC(=O)[C@@H]4[C@@]5(C)C[C@@H](O)[C@H](O)[C@@](C)(CO)[C@@H]5CC[C@]43C)[C@H]12
4.85

----------
- Tested on: HeLa
- test: Cytotoxicity against human HeLa cells after 48 hrs by MTT assay
- Type: functional, cell-based
parameter measured: pIC50
Worth noting: pIC50 values are minus log10 of concentrations stated in mol/L.

Example entries and their recorded answers appear below.
# structure smiles, experimental value
data = [
    ("C[C@H]1[C@H](C)CC[C@]2(C(=O)Nc3cccc(F)c3)CC[C@]3(C)C(=CC(=O)[C@@H]4[C@@]5(C)C[C@@H](O)[C@H](O)[C@@](C)(CO)[C@@H]5CC[C@]43C)[C@H]12", 4.55),
    ("C[C@H]1[C@H](C)CC[C@]2(C(=O)Nc3cccc4ccccc34)CC[C@]3(C)C(=CC(=O)[C@@H]4[C@@]5(C)C[C@@H](O)[C@H](O)[C@@](C)(CO)[C@@H]5CC[C@]43C)[C@H]12", 4.85),
]

Hello, please tell me recorded pIC50 for this one: C[C@H]1[C@H](C)CC[C@]2(C(=O)Nc3ccccc3)CC[C@]3(C)C(=CC(=O)[C@@H]4[C@@]5(C)C[C@@H](O)[C@H](O)[C@@](C)(CO)[C@@H]5CC[C@]43C)[C@H]12
4.57
